Source: the supplement of paper PMC9233669

- Tested on: biotinyl-Phe-oxazolone
- procedureSummary: self-aminoacylation, catalytic enhancement (BFO) (fold over background); higher = more active; k-Seq, kA / k0A0; sequences stand for … in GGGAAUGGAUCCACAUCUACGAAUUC…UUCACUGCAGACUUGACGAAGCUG
Fewer inactive variants are shown than the library holds.
Label Not met if self-aminoacylation falls below 4; label Met in every other case.

- AUGUUUGCUAAUAGUCGCAGG [Fam3.1 aminoacylation ribozyme variant]: Not met
- CCACACUUCGAGCAAACGGUC [Fam1B.1 aminoacylation ribozyme variant]: Not met
- CUUCACCUAGGUCUUCGGGUG [Fam2.2 aminoacylation ribozyme variant]: Met
- GAGUUUGCUAAUAGCCGCAAG [Fam3.1 aminoacylation ribozyme variant]: Met
- AAGUUUGCUAACAAUCGCAAG [Fam3.1 aminoacylation ribozyme variant]: Not met
- AUGACCCUGGUAAUCGAGUGA [Fam2.1 aminoacylation ribozyme variant]: Met
- AUUACCCAGGUCUUCGAGUGA [Fam2.1 aminoacylation ribozyme variant]: Met
- CCCCACUUCAAGCAAUCGGCC [Fam1B.1 aminoacylation ribozyme variant]: Met

----------
Quick list: self-aminoacylation per entry.
- Tested on: biotinyl-Met-oxazolone
- procedureSummary: self-aminoacylation, catalytic enhancement (BMO) (fold over background); higher = more active; k-Seq, kA / k0A0; sequences stand for … in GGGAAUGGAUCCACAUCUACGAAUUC…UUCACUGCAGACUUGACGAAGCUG
This sample holds only a part of the variants without activity.
quantityName: self-aminoacylation

- CCAUACUUCAAGCAAUCGGAC [Fam1B.1 aminoacylation ribozyme variant]: 1.17
- AUGAACCUAGGUCAUCGGGUG [Fam2.2 aminoacylation ribozyme variant]: 5.97
- AUUAACCUGGUCAUCGAGUGA [Fam2.1 aminoacylation ribozyme variant]: 7.3
- AUUCAACUAGGUCAUCGGGUC [Fam2.2 aminoacylation ribozyme variant]: 1.14
- GUGCACCUAGGUCAUCGGGUG [Fam2.2 aminoacylation ribozyme variant]: 3.85
- GUUCACCUAGGUCAGCGGGUG [Fam2.2 aminoacylation ribozyme variant]: 4.02
- CUACUUGAAACAAUCCGUCUG [Fam1A.1 aminoacylation ribozyme variant]: 1.03
- AUCACCCUGGUCAUCGAGUGC [Fam2.1 aminoacylation ribozyme variant]: 3.26
- CCAUACUUAAAGCAAUCGGUC [Fam1B.1 aminoacylation ribozyme variant]: 0.804
- UUUCAACUAGGUCAUCGGGUG [Fam2.2 aminoacylation ribozyme variant]: 5.1
- CCCCACUUCAAGCAAUCGGUU [Fam1B.1 aminoacylation ribozyme variant]: 3.35
- CUACUUCAAACAAUCAGUCUU [Fam1A.1 aminoacylation ribozyme variant]: 0.854

----------
- Tested on: biotinyl-Ile-oxazolone
- procedureSummary: self-aminoacylation, catalytic enhancement (BIO) (fold over background); higher = more active; k-Seq, kA / k0A0; sequences stand for … in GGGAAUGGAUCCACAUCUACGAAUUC…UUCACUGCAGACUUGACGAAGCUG
This sample holds only a part of the variants without activity.
Assign a class from recorded self-aminoacylation; defined classes: group A = under 1, group B = from 1 up to 2, group C = 2 and over

- CCAGACUUCAAGCCAUCGGUC [Fam1B.1 aminoacylation ribozyme variant]: group B
- CUAGUCCAAACAAUCGGUCUG [Fam1A.1 aminoacylation ribozyme variant]: group A
- AAGUUUGCUAAUUGUGGCAAG [Fam3.1 aminoacylation ribozyme variant]: group A
- CUACUUCAACCAUUCGGUCUG [Fam1A.1 aminoacylation ribozyme variant]: group B
- AUUAACCUGGUCAUCUAGUGA [Fam2.1 aminoacylation ribozyme variant]: group C
- AUUAGUCUGGUCAUCGAGUGA [Fam2.1 aminoacylation ribozyme variant]: group C
- AUUAUCCCGGUCAUCGAGUGA [Fam2.1 aminoacylation ribozyme variant]: group C
- CCACACUUCAAGCUAUUGGUC [Fam1B.1 aminoacylation ribozyme variant]: group A
- AUUCAACUAGGUCAUCGGGUU [Fam2.2 aminoacylation ribozyme variant]: group B
- CCACAAUUCAAGUAAUCGGUC [Fam1B.1 aminoacylation ribozyme variant]: group A
- CUACUUCUAACGAUCGGUCUG [Fam1A.1 aminoacylation ribozyme variant]: group A
- ACUCACCUAAGUCAUCGGGUG [Fam2.2 aminoacylation ribozyme variant]: group C
- AUUACCCUGGUCAACGAGUCA [Fam2.1 aminoacylation ribozyme variant]: group B
- CCACACUUCAAGAAAUCGGAC [Fam1B.1 aminoacylation ribozyme variant]: group A
- AUUACCUUGGUCAUAGAGUGA [Fam2.1 aminoacylation ribozyme variant]: group C
- CCAUACUACAAGCAAUCGGUC [Fam1B.1 aminoacylation ribozyme variant]: group A
